Test system: Tetranychus urticae
assay: Tetranychus urticae (two-spotted spider mite): feeding/contact activity
Assay type: in vivo
conditionNotes: 192 h, application rate 200 ppm, mixed population (mobile stages), 8 days after infestation, read-out: mortality
Below is a list of entries, each paired with its recorded mortality at 200 ppm value.

Worked cases, mortality at 200 ppm given:
- compound: "Cc1cc(C2=NOC(c3cc(Cl)c(C#N)c(Cl)c3)(C(F)(F)F)C2)ccc1C(=O)NC1CON(S(C)(=O)=O)C1 (stereo not drawn) [Compound A50]"
  mortality at 200 ppm: "≥ 80%"
- compound: "Cc1cc(C2=NO[C@@](c3cc(Cl)cc(Cl)c3)(C(F)(F)F)C2)ccc1C(=O)NC1CON(S(=O)(=O)N(C)C)C1 (stereo partly drawn) [Compound A41]"
  mortality at 200 ppm: "≥ 80%"

Would you kindly look at the next entry?
// recorded mortality at 200 ppm for Cc1cc(C2=NO[C@@](c3cc(Cl)cc(Cl)c3)(C(F)(F)F)C2)ccc1C(=O)N[C@H]1CON(S(=O)(=O)N(C)C)C1 [Compound A39] : ≥ 80%

###

Test system: Plutella xylostella
assay: Plutella xylostella (diamond back moth), artificial diet
Assay type: in vivo
conditionNotes: 120 h, application rate 200 ppm, L2 larvae, 5 days after infestation, read-out: effect in at least one of the two categories (mortality or growth inhibition)
Below is a list of entries, each paired with its recorded percent effect (mortality or growth inhibition) at 200 ppm value.

Worked cases, percent effect (mortality or growth inhibition) at 200 ppm given:
- compound: "CCNS(=O)(=O)N1C[C@@H](NC(=O)c2ccc(C3=NO[C@@](c4cc(Cl)cc(Cl)c4)(C(F)(F)F)C3)cc2C)CO1"
  dataValue: "≥ 80%"
- compound: "Cc1cc(C2=NO[C@@](c3cc(Cl)c(F)c(Cl)c3)(C(F)(F)F)C2)ccc1C(=O)NC1CON(S(=O)(=O)NC(C)(C)C)C1 (stereo partly drawn)"
  dataValue: "≥ 80%"

// returns percent effect (mortality or growth inhibition) at 200 ppm for CNS(=O)(=O)N1C[C@H](NC(=O)c2ccc(C3=NO[C@@](c4ccc(F)c(C(F)(F)F)c4)(C(F)(F)F)C3)cc2C)CO1 with Plutella xylostella; value = ≥ 80%

###

System: Plutella xylostella
assay: Plutella xylostella (diamond back moth), artificial diet
Assay type: in vivo
conditionNotes: 120 h, application rate 200 ppm, L2 larvae, 5 days after infestation, read-out: effect in at least one of the two categories (mortality or growth inhibition)
Below is a list of entries, each paired with its recorded percent effect (mortality or growth inhibition) at 200 ppm value.

- compound: "COC(=O)N(C)S(=O)(=O)N1CC(NC(=O)c2ccc(C3=NO[C@@](c4cc(Cl)c(F)c(Cl)c4)(C(F)(F)F)C3)cc2C)CO1 (stereo partly drawn) [Compound A77]"
  dataValue: "≥ 80%"
- compound: "CNS(=O)(=O)N1C[C@@H](NC(=O)c2ccc(C3=NO[C@@](c4cc(Cl)c(F)c(Cl)c4)(C(F)(F)F)C3)cc2C)CO1 [Compound A137]"
  dataValue: "≥ 80%"

// returns percent effect (mortality or growth inhibition) at 200 ppm for Cc1cc(C2=NO[C@@](c3cc(Cl)c(Cl)c(Cl)c3)(C(F)(F)F)C2)ccc1C(=O)NC1CON(S(=O)(=O)N(C)Cc2ccccc2)C1 (stereo partly drawn) [Compound A86] with Plutella xylostella; value = ≥ 80%

###

Below is a list of entries, each paired with its recorded mortality at 200 ppm value.
Tested on: Tetranychus urticae
assay: Tetranychus urticae (two-spotted spider mite): feeding/contact activity
Assay type: in vivo
conditionNotes: 192 h, application rate 200 ppm, mixed population (mobile stages), 8 days after infestation, read-out: mortality

Worked cases, mortality at 200 ppm given:
- chemicalStructure: "CCNS(=O)(=O)N1C[C@@H](NC(=O)c2ccc(C3=NO[C@@](c4cc(Cl)c(F)c(Cl)c4)(C(F)(F)F)C3)cc2Cl)CO1"
  dataValue: "≥ 80%"
- chemicalStructure: "CNS(=O)(=O)N1C[C@@H](NC(=O)c2ccc(C3=NO[C@@](c4cc(Cl)cc(Cl)c4)(C(F)(F)F)C3)cc2Cl)CO1"
  dataValue: "≥ 80%"

Would you kindly look at the next entry?
// returns mortality at 200 ppm for CCN(C)S(=O)(=O)N1C[C@@H](NC(=O)c2ccc(C3=NO[C@@](c4cc(Cl)c(Cl)c(Cl)c4)(C(F)(F)F)C3)cc2Cl)CO1 with Tetranychus urticae; value = ≥ 80%

###

System: Tetranychus urticae
assay: Tetranychus urticae (two-spotted spider mite): feeding/contact activity
Format: in vivo
conditionNotes: 192 h, application rate 200 ppm, mixed population (mobile stages), 8 days after infestation, read-out: mortality
observedProperty: mortality at 200 ppm

- compound: "Cc1cc(C2=NO[C@@](c3cc(Cl)cc(Cl)c3)(C(F)(F)F)C2)ccc1C(=O)N[C@@H]1CON(S(=O)(=O)NCC(F)(F)F)C1 [Compound A194]"
  observedProperty: "mortality at 200 ppm"
  dataValue: "≥ 80%"
- compound: "Cc1cc(C2=NO[C@@](c3cc(Cl)cc(C(F)(F)F)c3)(C(F)(F)F)C2)ccc1C(=O)NC1CON(S(C)(=O)=O)C1 (stereo partly drawn) [Compound A20]"
  observedProperty: "mortality at 200 ppm"
  dataValue: "≥ 80%"
- compound: "CCN(CC)S(=O)(=O)N1CC(NC(=O)c2ccc(C3=NO[C@@](c4cc(Cl)c(F)c(Cl)c4)(C(F)(F)F)C3)cc2C)CO1 (stereo partly drawn) [Compound A98]"
  observedProperty: "mortality at 200 ppm"
  dataValue: "≥ 80%"
- compound: "CS(=O)(=O)N1CC(NC(=O)c2ccc(C3=NOC(c4cc(Cl)cc(Cl)c4)(C(F)(F)F)C3)cc2C2CC2)CO1 (stereo not drawn) [Compound A52]"
  observedProperty: "mortality at 200 ppm"
  dataValue: "≥ 80%"
- compound: "Cc1cc(C2=NO[C@@](c3cc(Cl)c(F)c(Cl)c3)(C(F)(F)F)C2)ccc1C(=O)N[C@@H]1CON(S(=O)(=O)C2CC2)C1 [Compound A228]"
  observedProperty: "mortality at 200 ppm"
  dataValue: "≥ 80%"
- compound: "Cc1cc(C2=NO[C@@](c3cc(Cl)c(F)c(Cl)c3)(C(F)(F)F)C2)ccc1C(=O)NC1CON(S(=O)(=O)N(C)S(C)(=O)=O)C1 (stereo partly drawn) [Compound A92]"
  observedProperty: "mortality at 200 ppm"
  dataValue: "≥ 80%"
- compound: "Cc1cc(C2=NO[C@@](c3cc(Cl)c(F)c(Cl)c3)(C(F)(F)F)C2)ccc1C(=O)NC1CON(S(=O)(=O)c2ccc(Cl)cc2)C1 (stereo partly drawn) [Compound A2]"
  observedProperty: "mortality at 200 ppm"
  dataValue: "≥ 80%"
- compound: "CS(=O)(=O)N1C[C@@H](NC(=O)c2ccc(C3=NO[C@@](c4cc(Cl)c(F)c(Cl)c4)(C(F)(F)F)C3)cc2Cl)CO1 [Compound A144]"
  observedProperty: "mortality at 200 ppm"
  dataValue: "≥ 80%"

// recorded mortality at 200 ppm for Cc1cc(C2=NO[C@@](c3cc(Cl)c(Cl)c(Cl)c3)(C(F)(F)F)C2)ccc1C(=O)N[C@@H]1CON(S(=O)(=O)N(C)C)C1 (single isomer, unassigned) [Compound A112] : ≥ 80%

// recorded mortality at 200 ppm for CNS(=O)(=O)N1CC(NC(=O)c2ccc(C3=NO[C@@](c4cc(Cl)c(Cl)c(Cl)c4)(C(F)(F)F)C3)cc2C)CO1 (stereo partly drawn) [Compound A69] : ≥ 80%

// recorded mortality at 200 ppm for Cc1cc(C2=NO[C@](c3cc(Cl)cc(C(F)(F)F)c3)(C(F)(F)F)C2)ccc1C(=O)N[C@H]1CON(S(=O)(=O)CCl)C1 [Compound A217] : ≥ 80%

// recorded mortality at 200 ppm for CS(=O)(=O)N1CC(NC(=O)c2ccc(C3=NOC(c4cc(Cl)cc(Cl)c4)(C(F)(F)F)C3)cc2Cl)CO1 (stereo not drawn) [Compound A49] : ≥ 80%

###

System: Tetranychus urticae
assay: Tetranychus urticae (two-spotted spider mite): feeding/contact activity
Type: in vivo
conditionNotes: 192 h, application rate 200 ppm, mixed population (mobile stages), 8 days after infestation, read-out: mortality
Below is a list of entries, each paired with its recorded mortality at 200 ppm value.

// recorded mortality at 200 ppm for COC(=O)CS(=O)(=O)N1C[C@H](NC(=O)c2ccc(C3=NO[C@@](c4cc(Cl)c(F)c(Cl)c4)(C(F)(F)F)C3)cc2C)CO1 : ≥ 80%

// recorded mortality at 200 ppm for Cc1cc(C2=NO[C@@](c3cc(Cl)c(F)c(Cl)c3)(C(F)(F)F)C2)ccc1C(=O)NC1CON(S(=O)(=O)N(C)C)C1 (stereo partly drawn) : ≥ 80%

// recorded mortality at 200 ppm for CCNS(=O)(=O)N1C[C@@H](NC(=O)c2ccc(C3=NO[C@@](c4cc(Cl)cc(Cl)c4)(C(F)(F)F)C3)cc2C)CO1 : ≥ 80%
